Tested on: COLO 205 colon
Protocol Description: NCI tumour cell line growth inhibition, 48 h
Outcome Measure: TGI (µM)
All answers are understood in µM, so give the number only.

>  <Compound>
CC(C)/C(Cl)=N/OC(NC(=O)Nc1ccc(Cl)c(Cl)c1)(C(F)(F)F)C(F)(F)F

>  <Unit Name>
µM

>  <TGI>
9.27

$$$$

**Q:** Endpoint output: TGI of O=[N+]([O-])/C(C(Cl)=C(Cl)Cl)=C(\Nc1cccc2cccnc12)Sc1ccccc1 . Value?
**A:** 31.6

**Q:** Endpoint output: TGI of O=C(c1c(F)c(F)c(F)c(F)c1F)n1c(=O)[nH]c2ccccc21 . Value?
**A:** 25.7

**Q:** Endpoint output: TGI of COc1ccc(-c2nc3sccn3c2/C=C/C(=O)c2cc(OC)c(OC)c(OC)c2)cc1OC . Value?
**A:** 5.98

**Q:** Endpoint output: TGI of COc1ccc(C(=O)c2cc(OC)c(OC)c(OC)c2)cc1/C=C/C(=O)c1ccc(O)cc1 . Value?
**A:** 36.3

**Q:** Endpoint output: TGI of O=C(Nc1ccccc1)O/N=C1/CCCC/C1=C\c1ccccc1 . Value?
**A:** 28.2

**Q:** Endpoint output: TGI of CCCCCCCCCCCCOCCCCCCCCC/C=C/c1ccc2c(c1)OCCOCCOCCOCCO2 . Value?
**A:** 35.2

**Q:** Endpoint output: TGI of CCOC(=O)Oc1c(OC)cc(C(=O)c2ccc(OC)c(OC(=O)CCl)c2OC)cc1OC . Value?
**A:** 66.7

**Q:** Endpoint output: TGI of COc1ccc(C[C@H]2NC[C@H](OC(C)=O)[C@H]2OC(C)=O)cc1 . Value?
**A:** 0.311

**Q:** Endpoint output: TGI of COC(=O)C1=C(C(=O)OC)C2(c3ccccc3)c3ccccc3C(=O)C1N2C1CCCCC1 (centres undefined) . Value?
**A:** 32.8

**Q:** Endpoint output: TGI of COc1ccc2c(c1OC)C(Br)CCC(Br)(Br)C2=O (centres undefined) . Value?
**A:** 10.1

**Q:** Endpoint output: TGI of COc1ccc(/C=C(\C#N)n2nnc3cc(Cl)ccc32)cc1 . Value?
**A:** 7.01

**Q:** Endpoint output: TGI of Cc1cc2c(c(C=Nc3ccc(N(C)C)cc3)c1)OC1(C=C2)Oc2ccccc2C(=O)N1C (centres undefined) . Value?
**A:** 33.9

**Q:** Endpoint output: TGI of COC(=O)C1=C(O)C(C(=O)OC)[C@]2(O)[C@H](C(=O)OC)[C@H]1C[C@@H](c1ccc(Cl)cc1Cl)[C@H]2C(=O)OC (some centres undefined) . Value?
**A:** 20.9

src = PubChem BioAssay (NCI)
